Target: T1, AFP158/HLA-A*02:01 complex (human)
T1 construct: flowed over the chip in SPR; also called AFP158 pro
Test: SPR, KD ratio to AS170036 VL1VH1;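 note: crude scFv captured on a sensor chip, peptide–HLA complex passed over at several concentrations, association then buffer dissociation, KD derived from on- and off-rates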
value.type: Affinity increase (fold)

- binder: "HG108E (scFv, AS170036 VL1VH1 scFv mutein; also called AS170036 VL1VH1-VHG108E) scFv: QSALTQPRSVSGSPGQSVTISCAGTSSDVGSENYVSWYQQHPGKAPKLMIYQVNKRASGVPDRFSGSKSGNTASLTISGLQAEDEADYYCASYRSSDHNIVFGGGTKLTVLGGGGSGGGGSGGGGSEVQLVESGGGLVQPGGSLRLSCAASGFTFSSYAMSWVRQAPGKGLEWVSTINSGTGSPYYADSVKGRFTISRDNSKNTLYLQMNSLRAEDTAVYYCAKNFFDGSWFLEPPAMDYWGQGTLVTVSSHHHHHH"
  value.type: "Affinity increase"
  test.value: 4.1
- binder: "HG108T (scFv, AS170036 VL1VH1 scFv mutein) scFv: QSALTQPRSVSGSPGQSVTISCAGTSSDVGSENYVSWYQQHPGKAPKLMIYQVNKRASGVPDRFSGSKSGNTASLTISGLQAEDEADYYCASYRSSDHNIVFGGGTKLTVLGGGGSGGGGSGGGGSEVQLVESGGGLVQPGGSLRLSCAASGFTFSSYAMSWVRQAPGKGLEWVSTINSGTGSPYYADSVKGRFTISRDNSKNTLYLQMNSLRAEDTAVYYCAKNFFDGSWFLTPPAMDYWGQGTLVTVSSHHHHHH"
  value.type: "Affinity increase"
  test.value: 0.5
- binder: "HG56F (scFv, AS170036 VL1VH1 scFv mutein; also called AS170036 VL1VH1-VHG56F) scFv: QSALTQPRSVSGSPGQSVTISCAGTSSDVGSENYVSWYQQHPGKAPKLMIYQVNKRASGVPDRFSGSKSGNTASLTISGLQAEDEADYYCASYRSSDHNIVFGGGTKLTVLGGGGSGGGGSGGGGSEVQLVESGGGLVQPGGSLRLSCAASGFTFSSYAMSWVRQAPGKGLEWVSTINSGTFSPYYADSVKGRFTISRDNSKNTLYLQMNSLRAEDTAVYYCAKNFFDGSWFLGPPAMDYWGQGTLVTVSSHHHHHH"
  value.type: "Affinity increase"
  test.value: 2.3
- binder: "HS57T (scFv, AS170036 VL1VH1 scFv mutein) scFv: QSALTQPRSVSGSPGQSVTISCAGTSSDVGSENYVSWYQQHPGKAPKLMIYQVNKRASGVPDRFSGSKSGNTASLTISGLQAEDEADYYCASYRSSDHNIVFGGGTKLTVLGGGGSGGGGSGGGGSEVQLVESGGGLVQPGGSLRLSCAASGFTFSSYAMSWVRQAPGKGLEWVSTINSGTGTPYYADSVKGRFTISRDNSKNTLYLQMNSLRAEDTAVYYCAKNFFDGSWFLGPPAMDYWGQGTLVTVSSHHHHHH"
  value.type: "Affinity increase"
  test.value: 1.1
- binder: "HG56M (scFv, AS170036 VL1VH1 scFv mutein) scFv: QSALTQPRSVSGSPGQSVTISCAGTSSDVGSENYVSWYQQHPGKAPKLMIYQVNKRASGVPDRFSGSKSGNTASLTISGLQAEDEADYYCASYRSSDHNIVFGGGTKLTVLGGGGSGGGGSGGGGSEVQLVESGGGLVQPGGSLRLSCAASGFTFSSYAMSWVRQAPGKGLEWVSTINSGTMSPYYADSVKGRFTISRDNSKNTLYLQMNSLRAEDTAVYYCAKNFFDGSWFLGPPAMDYWGQGTLVTVSSHHHHHH"
  value.type: "Affinity increase"
  test.value: 1.7
- binder: "HG108V (scFv, AS170036 VL1VH1 scFv mutein) scFv: QSALTQPRSVSGSPGQSVTISCAGTSSDVGSENYVSWYQQHPGKAPKLMIYQVNKRASGVPDRFSGSKSGNTASLTISGLQAEDEADYYCASYRSSDHNIVFGGGTKLTVLGGGGSGGGGSGGGGSEVQLVESGGGLVQPGGSLRLSCAASGFTFSSYAMSWVRQAPGKGLEWVSTINSGTGSPYYADSVKGRFTISRDNSKNTLYLQMNSLRAEDTAVYYCAKNFFDGSWFLVPPAMDYWGQGTLVTVSSHHHHHH"
  value.type: "Affinity increase"
  test.value: 0.7
- binder: "HS57R (scFv, AS170036 VL1VH1 scFv mutein; also called AS170036 VL1VH1-VHS57R) scFv: QSALTQPRSVSGSPGQSVTISCAGTSSDVGSENYVSWYQQHPGKAPKLMIYQVNKRASGVPDRFSGSKSGNTASLTISGLQAEDEADYYCASYRSSDHNIVFGGGTKLTVLGGGGSGGGGSGGGGSEVQLVESGGGLVQPGGSLRLSCAASGFTFSSYAMSWVRQAPGKGLEWVSTINSGTGRPYYADSVKGRFTISRDNSKNTLYLQMNSLRAEDTAVYYCAKNFFDGSWFLGPPAMDYWGQGTLVTVSSHHHHHH"
  value.type: "Affinity increase"
  test.value: 2.8
- binder: "HP110T (scFv, AS170036 VL1VH1 scFv mutein) scFv: QSALTQPRSVSGSPGQSVTISCAGTSSDVGSENYVSWYQQHPGKAPKLMIYQVNKRASGVPDRFSGSKSGNTASLTISGLQAEDEADYYCASYRSSDHNIVFGGGTKLTVLGGGGSGGGGSGGGGSEVQLVESGGGLVQPGGSLRLSCAASGFTFSSYAMSWVRQAPGKGLEWVSTINSGTGSPYYADSVKGRFTISRDNSKNTLYLQMNSLRAEDTAVYYCAKNFFDGSWFLGPTAMDYWGQGTLVTVSSHHHHHH"
  value.type: "Affinity increase"
  test.value: 1.3
- binder: "HP110V (scFv, AS170036 VL1VH1 scFv mutein) scFv: QSALTQPRSVSGSPGQSVTISCAGTSSDVGSENYVSWYQQHPGKAPKLMIYQVNKRASGVPDRFSGSKSGNTASLTISGLQAEDEADYYCASYRSSDHNIVFGGGTKLTVLGGGGSGGGGSGGGGSEVQLVESGGGLVQPGGSLRLSCAASGFTFSSYAMSWVRQAPGKGLEWVSTINSGTGSPYYADSVKGRFTISRDNSKNTLYLQMNSLRAEDTAVYYCAKNFFDGSWFLGPVAMDYWGQGTLVTVSSHHHHHH"
  value.type: "Affinity increase"
  test.value: 0.6
